pKi alpha-2 2b listing for selected compounds.
# study_system: α2B receptor (Homo sapiens)
# Construct: host or cells: LM(tk-) cells, line L-NGC-α2B
# test_description: Competition binding, [3H]rauwolscine, human α2B receptor
# condition_details: [3H]rauwolscine, human α2B receptor, LM(tk−) cells

{"compound": "CCC1=C(C(N)=O)C(c2ccc([N+](=O)[O-])cc2)C(C(=O)NC2CCN(CCc3c[nH]c4ccccc34)CC2)=CN1CC (stereo not drawn) [Example 122]", "pKi alpha-2 2b": 7.35}
{"compound": "CCOC(=O)C1=C(CNCCCN2CCC(c3ccccc3)(c3ccccc3)CC2)NC(C)=C(C(=O)OC)C1c1ccc([N+](=O)[O-])cc1.Cl.O (stereo not drawn)", "pKi alpha-2 2b": 6.04}
{"compound": "CCC1=C(C(N)=O)C(c2ccc([N+](=O)[O-])cc2)C(C(=O)NCCCN2CCC(c3ccccc3)(c3ccccc3)CC2)=C(CC)N1 (stereo not drawn)", "pKi alpha-2 2b": 6.59}

====

Entries and their Ki values follow.
# study_system: α2B receptor (Homo sapiens, UniProt P18089)
# Construct: host or cells: LM(tk-) cells, line L-NGC-α2B
# test_description: Competition binding, [3H]rauwolscine, human α2B receptor
# condition_details: pKi alpha-2 2b, [3H]rauwolscine, human α2B receptor, LM(tk−) cells
Counter-ions that a name gives are not always drawn.

{"compound": "CCC1=C(C(N)=O)C(c2ccc([N+](=O)[O-])cc2)C(C(=O)NCCCN2CCC(O)(c3ccccc3)CC2)=C(CC)N1 (stereo not drawn) [Example 100, hydrochloride hydrate]", "Ki [nM]": 2880}
{"compound": "CC1=C(C(=O)NCCCN2CCC(c3ccccc3)(c3ccccc3)CC2)C(c2ccc([N+](=O)[O-])cc2)C(C(=O)NC(C)C)=C(C)N1 (stereo not drawn)", "Ki [nM]": 562}
{"compound": "CCC1=C(C(=O)NCCCN2CCC(c3ccccc3)(c3ccccc3)CC2)C(c2cccc(OC)c2)C(C(N)=O)=C(C)N1 (stereo not drawn)", "Ki [nM]": 166}
{"compound": "CCC1=C(C(=O)NC)C(c2ccc([N+](=O)[O-])cc2)C(C(=O)NCCCN2CCC(c3ccccc3)(c3ccccc3)CC2)=C(CC)N1 (stereo not drawn)", "Ki [nM]": 437}
{"compound": "CCC1=C(C(N)=O)C(c2ccc(S(C)(=O)=O)cc2)C(C(=O)NCCCN2CCC(c3ccccc3)(c3ccccc3)CC2)=C(CC)N1 (stereo not drawn)", "Ki [nM]": 372}
{"compound": "CCC1=C(C(N)=O)C(c2ccc(S(C)(=O)=O)cc2)C(C(=O)NCCCN2CCC(c3ccccc3)(c3ccccc3)CC2)=C(C)N1 (stereo not drawn)", "Ki [nM]": 1450}

====

# study_system: α1C Human Adrenergic Receptor (Homo sapiens, UniProt P35348)
# Construct: The entire coding region of α1C (1401 bp); expressed in transfected cells
# Sequence (P35348 whole entry): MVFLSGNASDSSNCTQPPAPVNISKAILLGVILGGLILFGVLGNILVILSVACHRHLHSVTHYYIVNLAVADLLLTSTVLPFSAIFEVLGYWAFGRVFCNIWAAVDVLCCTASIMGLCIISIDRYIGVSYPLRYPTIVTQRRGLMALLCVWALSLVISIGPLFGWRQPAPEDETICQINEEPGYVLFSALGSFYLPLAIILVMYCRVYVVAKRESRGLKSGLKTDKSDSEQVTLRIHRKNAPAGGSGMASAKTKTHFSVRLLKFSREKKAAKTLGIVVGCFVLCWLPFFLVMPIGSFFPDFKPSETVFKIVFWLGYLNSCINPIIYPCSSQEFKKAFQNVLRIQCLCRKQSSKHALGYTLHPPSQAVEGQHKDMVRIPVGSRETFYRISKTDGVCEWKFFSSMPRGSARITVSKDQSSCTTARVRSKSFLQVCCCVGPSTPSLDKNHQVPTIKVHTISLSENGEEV
# test_description: Radioligand binding, [3H]prazosin, cloned human α1C adrenergic receptor
# condition_details: cloned human receptor, LM(tk-) cell membranes, mean, read-out: PKi alpha-1 1c (converted)

{"molecule": "COC(=O)C1(c2ccccc2)CCN(CCCNC(=O)C2=C(COCCN=[N+]=[N-])NC(C)=C(C(N)=O)C2c2ccc([N+](=O)[O-])cc2)CC1 (stereo not drawn)", "endpoint_unit": "nM", "Ki": 0.851}
{"molecule": "CC1=C(C(N)=O)C(c2ccc([N+](=O)[O-])cc2)C(C(=O)NCCCN2CCC(C(=O)O)(c3ccccc3)CC2)=C(C)N1 (stereo not drawn)", "endpoint_unit": "nM", "Ki": 93.3}
{"molecule": "COC(=O)C1(c2ccccc2)CCN(CCCNC(=O)C2=C(CCCCN)NC(C)=C(C(N)=O)C2c2ccc([N+](=O)[O-])cc2)CC1 (stereo not drawn)", "endpoint_unit": "nM", "Ki": 4.68}
{"molecule": "CCC1=C(C(N)=O)C(c2ccc([N+](=O)[O-])cc2)C(C(=O)NCCCN2CCC(C(=O)OC)(c3ccccc3)CC2)=C(COCCN=[N+]=[N-])N1 (stereo not drawn)", "endpoint_unit": "nM", "Ki": 4.37}
{"molecule": "COC(=O)C1(c2ccccc2)CCN(CCCNC(=O)C2=C(CCCCN)NC(C)=C(C(C)=O)C2c2ccc([N+](=O)[O-])cc2)CC1 (stereo not drawn)", "endpoint_unit": "nM", "Ki": 2.57}
{"molecule": "CCC1=C(C(=O)O)C(c2ccc([N+](=O)[O-])cc2)C(C(=O)NCCCN2CCC(C(=O)OC)(c3ccccc3)CC2)=C(COCCN=[N+]=[N-])N1 (stereo not drawn)", "endpoint_unit": "nM", "Ki": 23.4}
{"molecule": "CCC1=C(C(=O)NC)C(c2ccc([N+](=O)[O-])cc2)C(C(=O)NCCCN2CCC(C(=O)OC)(c3ccccc3)CC2)=C(CCCCOC)N1 (stereo not drawn)", "endpoint_unit": "nM", "Ki": 4.07}
{"molecule": "CCOC(=O)C1(c2ccccc2)CCN(CCCNC(=O)C2=C(COCCN)NC(CC)=C(C(=O)NC)C2c2ccc([N+](=O)[O-])cc2)CC1 (stereo not drawn)", "endpoint_unit": "nM", "Ki": 3.72}
{"molecule": "CCC1=C(C(N)=O)C(c2ccc([N+](=O)[O-])cc2)C(C(=O)NCCCN2CCC(C(=O)OC)(c3ccccc3)CC2)=C(CCCCN=[N+]=[N-])N1 (stereo not drawn)", "endpoint_unit": "nM", "Ki": 0.501}
{"molecule": "CCC1=C(C(=O)OC)C(c2ccc([N+](=O)[O-])cc2)C(C(=O)NCCCN2CCC(C(=O)OC)(c3ccccc3)CC2)=C(COCCN)N1 (stereo not drawn)", "endpoint_unit": "nM", "Ki": 2.09}
{"molecule": "CCC1=C(C(=O)OC)C(c2ccc([N+](=O)[O-])cc2)C(C(=O)NCCCN2CCC(C(=O)OC)(c3ccccc3)CC2)=C(COCCN=[N+]=[N-])N1 (stereo not drawn)", "endpoint_unit": "nM", "Ki": 7.59}
{"molecule": "CCC1=C(C(N)=O)C(c2ccc([N+](=O)[O-])cc2)C(C(=O)NCCCN2CCC(C(=O)OC)(c3ccccc3)CC2)=C(COCCN)N1 (stereo not drawn)", "endpoint_unit": "nM", "Ki": 1.62}

====

# study_system: α2B receptor (Homo sapiens)
# Construct: host or cells: LM(tk-) cells, line L-NGC-α2B
# Sequence (P18089 1-450): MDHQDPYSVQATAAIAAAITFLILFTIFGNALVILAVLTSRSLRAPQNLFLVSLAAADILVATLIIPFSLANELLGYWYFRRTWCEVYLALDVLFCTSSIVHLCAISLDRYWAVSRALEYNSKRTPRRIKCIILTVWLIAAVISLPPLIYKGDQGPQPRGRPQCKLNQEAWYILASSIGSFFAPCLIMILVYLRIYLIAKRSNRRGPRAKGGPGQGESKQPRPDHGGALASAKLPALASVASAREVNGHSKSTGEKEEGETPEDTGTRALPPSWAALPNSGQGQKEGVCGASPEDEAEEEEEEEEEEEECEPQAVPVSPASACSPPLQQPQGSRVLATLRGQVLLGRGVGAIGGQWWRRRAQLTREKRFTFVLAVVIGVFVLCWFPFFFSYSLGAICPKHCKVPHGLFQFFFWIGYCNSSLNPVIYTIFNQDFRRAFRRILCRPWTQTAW
# test_description: Competition binding, [3H]rauwolscine, human α2B receptor
# condition_details: pKi alpha-2 2b
Counter-ions that a name gives are not always drawn.
// returns not satisfied unless Ki is strictly below 1000 nM, in which case satisfied

{"compound": "COC(=O)C1=C(C)NC(C)=C(C(=O)NCCCN2CCC(c3ccccc3)(c3ccccc3)CC2)C1c1ccc(OC)cc1 (stereo not drawn)", "study_system": "α2B receptor (Homo sapiens)", "class_assignment": "not satisfied"}
{"compound": "COC(=O)C1=C(C)NC(C)=C(C(=O)NCCCN2CCC(c3ccccc3)(c3ccccc3)CC2)C1c1ccc(-c2ccccc2)cc1 (stereo not drawn)", "study_system": "α2B receptor (Homo sapiens)", "class_assignment": "not satisfied"}
{"compound": "CCOC(=O)C1=C(CC(=O)NCCCN2CCC(c3ccccc3)(c3ccccc3)CC2)NC(C)=C(C(=O)OC)C1c1ccc([N+](=O)[O-])cc1 (stereo not drawn) [Example 89, fumarate salt]", "study_system": "α2B receptor (Homo sapiens)", "class_assignment": "not satisfied"}
{"compound": "COC(=O)C1=C(C)NC(C)=C(C(=O)NCCCN2CCC(c3ccccc3)(c3ccccc3)CC2)C1c1ccc(C)cc1 (stereo not drawn)", "study_system": "α2B receptor (Homo sapiens)", "class_assignment": "satisfied"}
{"compound": "COC(=O)C1=C(C)NC(c2ccccc2)=C(C(=O)NCCCN2CCC(c3ccccc3)(c3ccccc3)CC2)C1c1ccc([N+](=O)[O-])cc1 (stereo not drawn) [Example 78, hydrochloride hydrate]", "study_system": "α2B receptor (Homo sapiens)", "class_assignment": "satisfied"}
